- ASSAY_PROTOCOL: inhibitors of TNFa-induced NFkB p65 translocation, primary screen, imaging, HUVEC, MLSMR starter and 10KST1 sets (AID 438);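 further: compound added about 3h40 before a 20 min TNFalpha stimulation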
- CONDITION_CONTEXT: HUVEC TNFa-induced p65 nuclear translocation; measured here: nuclei count (cytotoxicity indicator), at 2.08 µM
cell count reference

COc1ccccc1-c1nnc(NC(=O)c2ccc(S(=O)(=O)N(C)Cc3ccccc3)cc2)o1; 391
CSc1nc2sc3c(c2c2nnnn12)CCC3; 594
C=CCOc1ccc(/C(O)=C2/C(=O)C(=O)N(CCCN3CCOCC3)C2c2ccc(OC)cc2)cc1 (stereo not drawn); 409

Prompt: Report measured cell count; entry is O=C(CSc1nccn1Cc1ccccc1)Nc1nccs1
Response: 388

Prompt: Report measured cell count; entry is CCCCCOc1ccccc1C(=O)NCCCC(=O)O
Response: 352

---

- ASSAYED_SYSTEM: Alpha-2C adrenergic receptor (Homo sapiens)
- ASSAY_PROTOCOL: modulators of alpha2C/GIRK thallium flux, primary screen, cell-based, HEK293 alpha2C/GIRK1/2 (AID 624);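 further: slope of fluorescence ratio to pre-addition baseline per second over 15 to 24 s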
- CONDITION_CONTEXT: thallium flux BTC fluorescence, at 10 µM, actives lie on both sides
QUANTITY_MEASURED: slope
# respond with the number and nothing more

Here is how some molecules turned out for slope.
CC(=O)C1=C(C)NC(C)=C(C(C)=O)C1c1cccs1; 0.00356
Cc1ccc(-n2cnnn2)c2cccnc12; 0.00333
Cn1c(=N)c(S(=O)(=O)c2ccc(Cl)cc2)cc2c(=O)n3ccccc3nc21; 0.00398

Prompt: Report measured slope; entry is CCOc1cc(C2C3=C(CCCC3=O)N(C)C3=C2C(=O)CCC3)cc(Cl)c1O
Response: 0.00638

Prompt: Report measured slope; entry is CC(=O)N(C(C)=O)c1cccc2c(N(C(C)=O)C(C)=O)cccc12
Response: 0.00429

Prompt: Report measured slope; entry is COC(=O)c1ccccc1NC(=O)Cn1ccnc1
Response: 0.00553

---

fluorescence slope reference
- ASSAYED_SYSTEM: Voltage-gated potassium channel subunit beta-2 (Rattus norvegicus) (UniProt P62483)
- Sequence (P62483 whole entry, looked up): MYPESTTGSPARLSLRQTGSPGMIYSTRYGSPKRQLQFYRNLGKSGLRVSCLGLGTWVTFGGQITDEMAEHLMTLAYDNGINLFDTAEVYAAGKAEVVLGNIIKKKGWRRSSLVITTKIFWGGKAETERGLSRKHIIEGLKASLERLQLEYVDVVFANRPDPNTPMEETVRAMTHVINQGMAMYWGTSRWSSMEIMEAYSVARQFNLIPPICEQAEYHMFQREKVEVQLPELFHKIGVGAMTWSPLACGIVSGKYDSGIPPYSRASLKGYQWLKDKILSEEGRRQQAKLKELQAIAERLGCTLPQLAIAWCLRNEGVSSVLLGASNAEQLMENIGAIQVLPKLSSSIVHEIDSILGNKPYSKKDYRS
- ASSAY_PROTOCOL: KvBeta enzyme negative modulators, primary screen, biochemical, NADPH fluorescence (AID 622);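 further: slope of raw intensity against log time taken from 70 to 1610 s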
- CONDITION_CONTEXT: recombinant KvBeta, 4-cyanobenzaldehyde reduction, at 10 µM, stronger effect = higher value
Calls of active or inactive are those of the source.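 Rule for the calls: active = fluorescence slope higher than the sample average by over 3 SD (cut at about -0.22 in these data, passing the limit was not always enough); inactive = the rest.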

Here is how some molecules turned out for fluorescence slope.
CCCCCCC(C)n1[nH]c(=O)c2c(C)cc(=O)[nH]c21 (stereo unspecified); -0.61 (inactive)
CCCC(=O)Nc1cnc(NC(=O)c2cccc(F)c2)cc1C; -0.563 (inactive)
CC1(C)NC(=O)N(CC(O)CN2CCCC2)C1=O (stereo unspecified); -0.543 (inactive)
CCn1c(=O)cc(OCC(=O)NC2CCCCC2)c2ccccc21; -0.263 (inactive)
CCCOc1ccc(NC2=CC(=O)CC(C)(C)C2)cc1; -0.405 (inactive)
CN(C)c1cccc2c(S(=O)(=O)Nc3ccccn3)cccc12; -0.318 (inactive)

Prompt: Report measured fluorescence slope; entry is Cc1ccccc1-n1c(Cn2c(=O)sc3ccccc32)nnc1SCC(=O)N1CCCC1
Response: -0.547 (inactive)

Prompt: Report measured fluorescence slope; entry is O=C1CC(c2ccc(F)c(Br)c2)C2=C(CCCC2=O)N1 (stereo unspecified)
Response: -0.327 (inactive)

Prompt: Report measured fluorescence slope; entry is O=C(NCc1cccnc1)C1CCCN(S(=O)(=O)c2ccc(Cl)cc2)C1 (stereo unspecified)
Response: -0.601 (inactive)

Prompt: Report measured fluorescence slope; entry is CCCCc1cc(=O)oc2c(CN3CCCC3)c(O)ccc12
Response: -0.0163 (inactive)

Prompt: Report measured fluorescence slope; entry is COc1ccccc1-c1nnc(SCC(=O)NC2CCCCC2)o1
Response: -0.56 (inactive)

Prompt: Report measured fluorescence slope; entry is Cc1ccc(Cn2nnnc2CN2CCC(O)(c3ccccc3F)CC2)cc1
Response: -0.498 (inactive)

Prompt: Report measured fluorescence slope; entry is CCOc1ccc(-c2nc(C#N)c(NCC(C)C)o2)cc1
Response: -0.474 (inactive)

Prompt: Report measured fluorescence slope; entry is Cc1cccc(CN2CCC(CNC(=O)C3CCCN(S(=O)(=O)c4cnc[nH]4)C3)CC2)c1 (stereo unspecified)
Response: -0.518 (inactive)

Prompt: Report measured fluorescence slope; entry is CCCCNc1cc(C)oc(=O)c1C(C)=O
Response: -0.443 (inactive)

Prompt: Report measured fluorescence slope; entry is Cc1ccc(-n2c(=O)c(C#N)cc3c(=O)n4ccccc4nc32)cc1
Response: -0.232 (inactive)

Prompt: Report measured fluorescence slope; entry is CC(=O)c1cc(Cl)ccc1OC(=O)c1ccco1
Response: -0.475 (inactive)

Prompt: Report measured fluorescence slope; entry is CCOC(=O)N1CCN(C(=O)c2ccc3c(SCC(=O)O)c4c(nc3c2)CCCC4)CC1
Response: -0.542 (inactive)

Prompt: Report measured fluorescence slope; entry is COCCCNc1nc2c(c(=O)[nH]c(=O)n2C)n1CC(O)COc1ccccc1 (stereo unspecified)
Response: -0.444 (inactive)

Prompt: Report measured fluorescence slope; entry is CCOc1ccc(OCc2cccc(C(=O)N3CCCC3)c2)cc1
Response: -0.423 (inactive)

Prompt: Report measured fluorescence slope; entry is CCc1nnc(NC(=O)c2ccc(S(=O)(=O)N(CC(C)C)CC(C)C)cc2)o1
Response: -0.507 (inactive)

Prompt: Report measured fluorescence slope; entry is O=C(CSc1nnc(COc2ccc(Cl)cc2)o1)N1CCN(c2ccccc2)CC1
Response: -0.501 (inactive)

Prompt: Report measured fluorescence slope; entry is Cc1ccc(NC2=NCC(=O)N2c2ccc3c(c2)OCCO3)c(C)c1
Response: -0.498 (inactive)

Prompt: Report measured fluorescence slope; entry is Cc1cc(C)n(-c2nc3sc4c(c3c3nnc(SCC(N)=O)n23)CC(C)(C)OC4)n1
Response: -0.318 (inactive)

Prompt: Report measured fluorescence slope; entry is COc1cccc(N2CCN(C(=O)c3ccc(=O)oc3)CC2C)c1 (stereo unspecified)
Response: -0.418 (inactive)
